meta.source: PubChem BioAssay (NCI)

# Test system: HL-60(TB) leukemia
# experiment: NCI-60 one-dose screen, 48 h
# testConditions: 10 µM unless noted
About 83,000 compounds went through this panel and 20% of them were active in at least one assay; those are over-represented in the sample as a whole. Active and inactive are the calls of the source. The calls were made as follows: active = growth percent below 10; inactive = the rest.
Respond using exactly one of the listed classes: TRUE = active, FALSE = inactive

// return assay outcome for CC1(C)N=C(N)N=C(N)N1c1cccc(C(=O)Nc2cccc(S(=O)(=O)F)c2)c1
FALSE

Param item: O=C([O][Sn]([O]C(=O)c1ccccn1)([c]1ccccc1)[c]1ccccc1)c1ccccn1
FALSE

Record: COc1cccc(-c2[nH]c(=S)ncc2C(=O)c2ccccc2)c1
FALSE

Thanks! And COc1cccc2cc(-c3cc4ccccc4[nH]3)/c(=N/C(=S)Nc3ccc(C)cc3)oc12 ?
FALSE

Now this one: CC1(C)OC(=O)C(=Cc2ccccc2Br)C(=O)O1
FALSE

Can you handle Cc1ccc(C)c(-n2c(-c3ccc(Br)cc3)csc2=NC(=O)c2ccccc2F)c1 next?
TRUE

And then O=C(O)CCNC1CCCCC1 , what is it?
FALSE

// same read-out, input: O=C(CN(C1CCCCC1)C1CCCCC1)Nc1ccc(S(=O)(=O)c2ccc(NC(=O)CN(C3CCCCC3)C3CCCCC3)cc2)cc1
TRUE

Let us now turn to O=[N+]([O-])c1cc([N+](=O)[O-])c(NN=C(c2ccc(O)cc2)c2ccc(O)cc2)cc1Cl
FALSE

And the next one, CCCCCCCCCCNC(=O)CCl ?
FALSE

Try this compound too: CN(C)c1ccc(CNCCO)cc1
FALSE

====

# System: NCI-H522 lung
# experiment: NCI-60 one-dose screen, 48 h
# testConditions: 10 µM unless noted
This is part of a sample that, as a whole, favours compounds with a hit. Of some 83,000 tested, about 20% had one in any assay. The source made the active and inactive calls. How the source made its calls: active means growth percent below 10; inactive means the rest.
Pick one and only one: 1 for active, 0 for inactive

Just curious, what result did O=C1NC2(CCNCC2)Nc2ccccc21 get here?
0

Here is the next molecule: Nc1cccc(CC(=O)Nc2ccc(S(=O)(=O)F)cc2)c1
0

Check COc1cc(CNCCc2ccc(Cl)cc2)cc(OC)c1O too.
0

Same thing, different molecule: COC(=O)C(=[N+]=[N-])C(=O)OC
0

Try CC(C)(O)/C=C/C(=O)[C@](C)(O)[C@H]1[C@H](O)C[C@@]2(C)[C@@H]3CC=C4[C@@H](C=C(O)C(=O)C4(C)C)[C@]3(C)C(=O)C[C@]12C next.
1

====

# System: HL-60(TB) leukemia
# experiment: NCI-60 one-dose screen, 48 h
# testConditions: 10 µM unless noted
About 83,000 compounds went through this panel and 20% of them were active in at least one assay; those are over-represented in the sample as a whole. Active and inactive are the calls of the source. Rule for the calls: active = growth percent below 10; inactive = the rest.
Tick one outcome: yes (1) for active, no (0) for inactive

Could you check what this test reported for C#CCn1c(C)cc(C)c(C#N)c1=O ?
no (0)

Moving on to COc1cccc(-c2nn(-c3ccccc3)cc2-c2ccnc(N3CCOCC3)c2)c1
no (0)

Similarly, CCOC(=O)c1sc(N)nc1-c1ccccc1 ?
no (0)

And what about the compound O=C(Cn1c2ccccc2c2ccncc21)N/N=C\c1ccc2ccccc2c1 ?
no (0)

Now the compound C[N+](C)(C)CN1C(=O)c2ccccc2C1=O
no (0)

Now give it for CC(C)(C)NC/C(=C\c1ccccc1)C(=O)c1ccccc1 too.
yes (1)

====

# Test system: HL-60(TB) leukemia
# experiment: NCI-60 one-dose screen, 48 h (100 = growth as untreated, 0 = no growth, -100 = all killed)
# testConditions: 10 µM unless noted
This is part of a sample that, as a whole, favours compounds with a hit. Of some 83,000 tested, about 20% had one in any assay.
Kindly state growth for each of the entries shown.
The answer is to be given in %; state only the numeric part.

Request - read-out growth | tested on HL-60(TB) leukemia | compound CC(C)N(C(=O)c1ccccc1)C(C)C
100

Then C[C@@]1(N2C(=O)OC[C@@H]2c2ccccc2)C(=O)N([C@H](CC(=O)N2CCC(N3CCCCC3)CC2)C(=O)NCc2cccc(C(F)(F)F)c2)[C@@H]1/C=C/c1ccccc1 ?
81

Now consider COc1ccc(OC)c(/C=C2\Oc3cc(OCCCN4CCCC4)ccc3C2=O)c1 .
87.5

Note, next up: Fc1ccc(C2CC(c3cccc(Nc4ccncc4)c3)=NN2c2ccccc2)cc1 (centres undefined)
-19.5

Next entry: Cc1ccc(S(=O)(=O)c2c(COC(=O)c3cccc(C)c3)c(-c3ccccc3)nn2C)cc1
30.2

Try O=C1CC2c3cc(-c4cc5ccccc5o4)ccc3CCN2C(=O)N1c1ccccc1 (centres undefined) next.
69.9

Now the compound O=C1CS/C(=N\Nc2cc(=O)[nH]c3ccccc23)N1c1ccccc1
96.2

Can you check CCOC(=O)c1c(C)nc2c(c1N)CC(=O)N2Cc1cc(OC)c(OC)c(OC)c1 next?
18.8

// query: CN1CCN(Cc2ccc(NC(=O)c3cncc(C#Cc4cnc(N)c5ccc(C#N)cc45)c3)cc2C(F)(F)F)CC1
-17

====

# Test system: HT29 colon
# experiment: NCI-60 one-dose screen, 48 h
# testConditions: 10 µM unless noted
# Method: Growth inhibition of the HT29 human tumor cell line is measured as a screen for anti-cancer activity. Cells are grown in 96 well plates and exposed to the test compound for 48 hours. Compounds are tested at a single concentration, which is 10^-5 M for most compounds. The reported endpoint is percent growth (GI% or GIPRCNT), where numbers from 0 - 100% represent growth inhibition, and numbers from -100% - 0 represent cell death. For example, a value of 40 represents 60% growth inhibition. […]
The panel holds about 83,000 compounds, 20% with a hit somewhere; the sample as a whole holds those more often. The source made the active and inactive calls. Rule for the calls: active = growth percent below 10; inactive = the rest.
Assign a class; possible classes are active, inactive

Field: outcome | Entry: O=S(=O)(O)c1ccc(-c2ccc([As](=O)(O)O)cc2)cc1
inactive

Ok, now CC(C)[C@]12O[C@H]1[C@@H]1O[C@]13[C@]1(O[C@H]1C[C@H]1C4=C(CC[C@@]13C)C(=O)OC4)[C@@H]2OC(=O)OC(C)(C)C
active

Do the same for CC[C@H](C)[C@H](NC(=O)Nc1ccccc1)C(=O)N(C)[C@H](C[C@@H](OC(C)=O)c1nc(C(=O)N[C@@H](Cc2ccccc2)C[C@H](C)C(=O)OC)cs1)C(C)C please
active

How about C=CCC1(CC)C(=O)NC(=S)NC1=O ?
inactive

Note, next up: CNC(=O)Oc1ccccc1
inactive

One more compound: CC(=O)[O][Hg][c]1nc2c(c(=O)n(C)c(=O)n2C)n1C
inactive

Here is the next compound: CC(C)N=C(NC(C)C)N1CC1
inactive

Lookup C/C(=N/OC(=O)N(C)C)c1ccc(Cl)cc1Cl
inactive

And the next one, CCC(C)(C)O ?
inactive

Try this compound too: O=[N+]([O-])c1ccc(/C=C/C=C/c2ccc(S(=O)(=O)F)cc2)c(Cl)c1
inactive

Try this compound next: COc1cc(/C=C\c2cc(OC)c(OC)c(OC)c2)cc(N/C=C\C(=O)c2ccc(OC(F)(F)F)cc2)c1OC
active

====

# System: HL-60(TB) leukemia
# experiment: NCI-60 one-dose screen, 48 h
# testConditions: 10 µM unless noted
This is part of a sample that, as a whole, favours compounds with a hit. Of some 83,000 tested, about 20% had one in any assay. The source made the active and inactive calls. The calls were made as follows: active = growth percent below 10; inactive = the rest.
Mark one answer only. Choices: Y = active, N = inactive

Which outcome was entered for the molecule Cc1[nH]c(-c2nc3ccccc3[nH]2)c(C)c1C(=O)NNc1ccc(Cl)cc1 in this test?
N

Check O=c1ccn(Cc2cn(-c3c4ccccc4nc4ccccc34)nn2)c(=O)[nH]1 too.
N

What about this molecule? Cc1[nH]c(-c2cc(N)ccc2Cl)c2c1C(=O)CCCC2
Y

Try this molecule too: O=C(COc1cccc(/C=C2\Oc3ccccc3C2=O)c1)c1ccc([N+](=O)[O-])cc1
N

Repeat with FC(F)(F)c1cccc(Oc2ccc(Nc3ncnc4ccc(OCCCN5CCOCC5)cc34)cc2Cl)c1
N

Can you check O=C1/C(=C(/c2ccccc2)N2CCOCC2)Cc2ccccc21 next?
N

Then what about the molecule O=C(NCCCCO)c1cncnc1Nc1ccc2c(ccn2Cc2cccc(F)c2)c1 ?
N

Next entry: CCOC(=O)c1ccccc1SC(C[N+](=O)[O-])c1ccccc1 (stereo unspecified)
N

Repeat for the following molecule: N#CCNc1ccccc1N
N

Repeat for the following molecule: COc1ccc(C(=O)Cn2c(C(=O)c3ccc(Cl)cc3)nc3ccccc32)cc1
N

What would you report for O=C(NNC(=O)N1c2ccccc2C=Cc2ccccc21)c1ccc2ccccc2c1 ?
N

====

Kindly state growth for each of the entries shown.
# System: HL-60(TB) leukemia
# experiment: NCI-60 one-dose screen, 48 h (100 = growth as untreated, 0 = no growth, -100 = all killed)
# testConditions: 10 µM unless noted
This is part of a sample that, as a whole, favours compounds with a hit. Of some 83,000 tested, about 20% had one in any assay.
Write down the numeric answer in % and omit the unit.

Query for HL-60(TB) leukemia: what growth does the record show for COc1cc(-c2nc3cc(Cl)c(Cl)cc3[nH]2)ccc1OCC(=O)N=Nc1c(O)[nH]c2ccccc12 ?
-51.5

What do you have for CCCN1CN2C(=O)N3CN(CCC)CN4C(=S)N(C1)C2C34 (stereo unspecified) ?
95

Also Cc1ccc(Nc2nc(-c3cc(O)c(C)c(C)c3O)cs2)cc1 , if possible.
9.51

Param item: Nc1c(C(=O)c2ccccc2)nnc2ncnn12
105

Another compound: CC1CCCN(CCCCOc2ccc(-c3ccc(C#N)cc3)cc2)C1 (stereo unspecified)
92.6

Can you check CCN(CC)c1ccc(/C=C\c2cc(C)c3cc(C)ccc3n2)cc1 next?
21.5

Now consider C[n+]1c(/C=C\C=C\N2CCCCC2)sc2ccccc21 and answer again.
-37.3

Now try COc1ccc(C(=O)c2cc3c(N)c(C(=O)Nc4ccc(C)cc4)sc3nc2C)cc1 .
7.74

Also COC(=O)c1c2c(c[n+]([O-])c1C)C(=O)C(NCc1ccccc1)=CC2=O ?
-34.5

Now give it for c1ccc2[nH]c(-c3ccc(Nc4nc(N5CCCCC5)nc(N5CCOCC5)n4)cc3)nc2c1 too.
-22.7

How about c1coc2occoc=2o1 ?
102
